Below, each of the sequences is paired with its reported self-splicing fitness (ln) value.
- protocolSummary: self-splicing fitness, log relative to wild type (ln ratio); higher = more splicing; Tetrahymena group I intron in knt gene, E. coli kanamycin selection, DiMSum; sequences stand for … in CUCUCU…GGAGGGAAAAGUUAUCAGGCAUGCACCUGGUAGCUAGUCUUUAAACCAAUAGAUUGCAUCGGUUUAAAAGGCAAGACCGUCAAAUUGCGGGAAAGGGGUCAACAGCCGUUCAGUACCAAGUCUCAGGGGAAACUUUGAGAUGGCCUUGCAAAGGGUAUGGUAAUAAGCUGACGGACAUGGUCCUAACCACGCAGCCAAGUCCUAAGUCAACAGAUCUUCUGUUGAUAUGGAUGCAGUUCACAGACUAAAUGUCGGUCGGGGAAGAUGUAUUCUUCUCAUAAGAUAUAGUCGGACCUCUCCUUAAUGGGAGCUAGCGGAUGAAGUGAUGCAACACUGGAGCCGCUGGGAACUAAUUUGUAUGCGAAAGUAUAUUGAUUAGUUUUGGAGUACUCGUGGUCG;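 also: selection with 25 µg/mL kanamycin versus none on LB agar overnight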
- cond: 37 °C
Give the figure only, with no unit attached.

>  <orderedResidues>
AACUAGCAAUAUUACGUCGC

>  <self-splicing fitness (ln)>
-1.08

$$$$
>  <orderedResidues>
CAAGAGCAAUAUUACGGAAA

>  <self-splicing fitness (ln)>
-2.82

$$$$

Qu. Can you look up the measured self-splicing fitness (ln) of GUAUAGCAAUAUUACGCGUG for me?
Ans. -0.201

Qu. Can you look up the measured self-splicing fitness (ln) of AAGCAGCAAUAUUACGGAGU for me?
Ans. -1.15

Qu. Can you look up the measured self-splicing fitness (ln) of GACAAGCAAUAUUACGACGG for me?
Ans. -2.64

Qu. Can you look up the measured self-splicing fitness (ln) of UUGAAGCAAUAUUACGCAUA for me?
Ans. 0.189

Qu. Can you look up the measured self-splicing fitness (ln) of GGAUAGCAAUAUUACGGGUA for me?
Ans. 0.0404

====

- protocolSummary: self-splicing fitness, log relative to wild type (ln ratio); higher = more splicing; Tetrahymena group I intron in knt gene, E. coli kanamycin selection, DiMSum; sequences stand for … in CUCUCU…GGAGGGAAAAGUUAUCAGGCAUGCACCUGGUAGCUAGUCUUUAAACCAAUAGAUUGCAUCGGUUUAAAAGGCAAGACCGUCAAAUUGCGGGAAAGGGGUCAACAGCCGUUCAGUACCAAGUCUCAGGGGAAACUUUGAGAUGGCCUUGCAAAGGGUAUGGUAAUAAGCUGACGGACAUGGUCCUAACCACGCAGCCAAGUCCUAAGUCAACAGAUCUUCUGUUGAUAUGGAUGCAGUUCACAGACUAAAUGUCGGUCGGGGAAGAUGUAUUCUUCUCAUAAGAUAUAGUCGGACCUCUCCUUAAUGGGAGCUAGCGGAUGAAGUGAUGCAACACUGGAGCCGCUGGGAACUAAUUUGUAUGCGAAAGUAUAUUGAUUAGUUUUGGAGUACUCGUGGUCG
- cond: 30 °C
Below, each of the sequences is paired with its reported self-splicing fitness (ln) value.

>  <orderedResidues>
CAGUAGCAAUAUUACGACUU

>  <attributeMeasured>
self-splicing fitness (ln)

>  <observedValue>
0.0553

$$$$

Qu. Can you look up the measured self-splicing fitness (ln) of UGACAGCAAUAUUACGUGGG for me?
Ans. -3.76

Qu. Can you look up the measured self-splicing fitness (ln) of CAGAAGCAAUAUUACGUCCC for me?
Ans. -2.92

Qu. Can you look up the measured self-splicing fitness (ln) of UCGAAGCAAUAUUACGCCGG for me?
Ans. -2.32

Qu. Can you look up the measured self-splicing fitness (ln) of CUAGAGCAAUAUUACGGCCU for me?
Ans. -2.72

Qu. Can you look up the measured self-splicing fitness (ln) of AUUAAGCAAUAUUACGCAAG for me?
Ans. -1.32

Qu. Can you look up the measured self-splicing fitness (ln) of UUCUAGCAAUAUUACGCGGU for me?
Ans. -2.74
